Listed next: entries and their corresponding melting point.

Previously resolved entries follow.
Cc1c(NC(=O)c2ccc(-c3ccc(Cl)cc3)c(F)c2)ccc2cc(CN3CCCC3)cnc12	190 to 192 °C
CC(C)(C)Cc1ccc(C#N)c(=O)[nH]1	211 to 212 °C
NC(=O)CC(O)(Cn1cncn1)c1ccc(Cl)cc1Cl (centres undefined)	144 to 145 °C
CCOP(=O)(CNCc1cccnc1-c1cc(OC)c(O)c(OC)c1)OCC	99 to 101 °C
CCCCSc1cc(C(=O)O)cc(N)c1-c1ccccc1	143 to 144 °C

Request: Please give the documented melting point of `CCCC(=O)c1cnc2c(C)cccc2c1Nc1ccc(Cl)cc1Cl`
Result: 169 to 170 °C

Request: Output measured melting point for this item: `CCc1n[nH]c(CC)c1CCCCCCOc1ccc(OC)cc1Cl`
Result: 91 to 93 °C

Request: Note melting point for the compound shown: `CCCn1c(=O)c2[nH]c(/C=C/c3ccco3)nc2n(CCC)c1=O`
Result: 258 to 259 °C

Request: Indicate its recorded melting point; the compound in question is `COc1ccc2c(ccc3c4ccc(OC)cc4c(=O)n(-c4ccc(O[Si](C)(C)C(C)(C)C)cc4)c23)c1`
Result: 211 to 213 °C

Request: Determine from records and report melting point for `CC1(N)CN(c2nc3c(cc2F)c(=O)c(C(=O)O)cn3C2CC2)C1`
Result: 285 to 287 °C

Request: In one line, give reported melting point of the entry `COc1ccc(NN=C(Sc2ccc(C#N)cc2)C(C)=O)cc1` .
Result: 182 to 184 °C

Request: Tell us which melting point value is on record for CC(=O)N1C(=O)NC(=O)C12c1ccccc1N(C)C(=O)N2C (centres undefined)
Result: 261 to 263 °C

Request: In one line, give reported melting point of the entry `C[C@@H]1OC(=O)[C@H]2[C@H]3O[C@H]([C@H]4CCCC[C@H]43)[C@@H]21` .
Result: 148 to 149 °C

Request: Could you please provide reported melting point for `O=C(CCCN1CCN(c2cc(-c3ccc(F)cc3)c3c(n2)CCC3)CC1)c1ccc(F)cc1` ? Thanks!
Result: 115 to 116 °C

Request: Please supply the value of reported melting point for the item Cc1cccc(-c2ccc(S(=O)(=O)N3c4ccccc4CC3C(=O)NCc3ccc(CC(=O)O)cc3)cc2)c1 (centres undefined)
Result: 118 to 120 °C

Request: Specify measured melting point for `CN1C(C(=O)Nc2cc(Cl)ncn2)=C(O)c2ccc3ccccc3c2S1(=O)=O` .
Result: 263 °C

Request: Assign melting point to the following record: Nc1nc(NCCc2cc(Br)cs2)nc2c1ncn2C1OC(CO)C(O)C1O (centres undefined)
Result: 136 to 144 °C

Request: Fill in reported melting point for this entry: CC(C)(C)OC(=O)N[C@H]1CN(Cc2ccccc2)[C@@H]2CCCO[C@H]12 (relative stereo)
Result: 82 to 84 °C

Request: For the compound `O=[N+]([O-])c1ccc(-c2ccc([N+](=O)[O-])c(Cl)c2)cc1Cl` , give its measured melting point value.
Result: 221 to 222 °C

* * *

The reader will find reported melting point values listed item by item below.

CCOc1cc2ncc(C#N)c(Nc3ccc4c(c3)OCO4)c2cc1OCC	200 to 203 °C
O=C1CCC(N2Cc3c(OCc4cnc5ccccc5c4)cccc3C2=O)C(=O)N1 (stereo not given)	270 to 273 °C
CCOC(=O)c1cnc2n(c1=O)C(C)CCC2=NNc1ccccc1 (stereo not given)	138 to 139 °C
CC(C)(N)c1ccc(-c2nc(Nc3ccc(F)c(Cl)c3)ncc2C#N)cc1	237 °C

Request: Give the value of melting point reported for the following: O=C(O)CC1SCCOC1=O (stereo not given)
Result: 96 to 98 °C

Source listed as a melting point compilation (Tetko et al.; mined from patent text by program, amines drawn as free bases though some values may be those of a salt).
